- Test system: Plasmodium falciparum
- Test Summary: GSK_TCMDC: Inhibition of Plasmodium falciparum 3D7 in whole red blood cells, using parasite LDH activity as an index of growth. Test compounds present at 2uM
- Format: functional
Value Type: Inhibition (%)
Note: unit % is implicit; provide only the numeric part.

[ask] Entry CNC(=O)Cc1ccc(C(=O)Nc2cccc(-c3ccc(-c4nc5cccc(C)c5[nH]4)s3)c2)cc1 : reported Inhibition = ?
[reply] 91

* * *

- Tested on: Plasmodium falciparum
- Test Summary: GSK_TCMDC: Inhibition of Plasmodium falciparum Dd2 in whole red blood cells, using parasite LDH activity as an index of growth. Test compounds present at 2uM
- Type: functional
# maps each entry to its Inhibition
Note: unit % is implicit; provide only the numeric part.

> print(dat)
                                   compound  units  assay.result
1  CCN(CC)CCCOc1ccc(Nc2nccc(-c3c(-c4cccc(NC(=O)c5c(F)cccc5F)c4)nn4ccccc34)n2)cc1F      %            99

[ask] Entry CC(C)Cc1nc(N)nc(N)c1-c1ccc(Cl)cc1 : reported Inhibition = ?
[reply] 3

[ask] Entry COc1ccc(CNCc2ccc(-c3cccc(-c4nc5cc(F)ccc5[nH]4)c3)cc2)cc1.O=C(O)C(F)(F)F : reported Inhibition = ?
[reply] 94

[ask] Entry Cl.c1ccc2c(c1)cc(CNCCCN1CCN(CCCNCc3cc4ccccc4c4ccccc34)CC1)c1ccccc12 : reported Inhibition = ?
[reply] 98

[ask] Entry CCCCOP(=O)(OCCCC)C(=Cc1ccc(O)c2ccccc12)P(=O)(OCCCC)OCCCC : reported Inhibition = ?
[reply] 64

[ask] Entry COc1ccc(S(=O)(=O)Nc2ccc(C(=O)NCc3ccccc3C(F)(F)F)cc2)cc1N1CCN(CC2CC2)CC1.O=C(O)C(F)(F)F : reported Inhibition = ?
[reply] 5

[ask] Entry COc1cc2cc(C(=O)Nc3ccccc3)c(N)nc2cc1OC : reported Inhibition = ?
[reply] 0

[ask] Entry CCCN(CCC)C(=O)c1cc(C(=O)N[C@@H](Cc2ccccc2)[C@H](O)CNC(C)(C)c2cccc(OC)c2)cc(N2CCCCS2(=O)=O)c1 : reported Inhibition = ?
[reply] 74

[ask] Entry O=C(NC(CCCN1CCC2(CC1)OCc1ccccc12)c1ccc(Cl)c(Cl)c1)c1cc(C(F)(F)F)cc(C(F)(F)F)c1 (stereo not drawn) : reported Inhibition = ?
[reply] 99

[ask] Entry CCN(CC)CCNC(=O)c1ccc(NC(=O)c2cn(-c3ccccc3)nc2-c2cccs2)cc1 : reported Inhibition = ?
[reply] 94

[ask] Entry COc1ccc2nccc(N3CCC(O)(CCNCc4ccc5c(n4)NC(=O)CO5)CC3)c2n1.Cl : reported Inhibition = ?
[reply] 24

[ask] Entry COc1cccc(CN2CCCC(CCC(=O)Nc3ccc(C(F)(F)F)cc3)C2)c1O (stereo not drawn) : reported Inhibition = ?
[reply] 97

* * *

# maps each entry to its Inhibition
- System: HepG2
- Test Summary: GSK_TCMDC: Percent inhibition of human HepG2 cell line. Test compounds present at 10uM.
- Assay type: functional
Note: unit % is implicit; provide only the numeric part.

The cases that follow already have their Inhibition on record.
> print(dat)
                                     smiles  units  assay.result
1  COc1ccc(-c2ccc(NC(=O)c3ccc(Cl)cc3)cc2)cc1CN1CCNCC1.O=C(O)C(F)(F)F      %            14
2  O=C(/C=C/c1ccc(Cl)c(Cl)c1)NCCCCCN1CCCN(C(=O)Nc2ccc([N+](=O)[O-])cc2)CC1      %            32
3  O=C(O)C(F)(F)F.O=C1CCCN1CCCNCc1ccc(-c2cccc(-c3nc4ccccc4[nH]3)c2)cc1      %            19

Pending compound:
[ask] Entry Cl.Cn1nc(C(F)(F)F)cc1-c1ccc(C(=O)Nc2ccc3c(c2)CNCC3(C)C)s1 : reported Inhibition = ?
[reply] 10

Value source: ChEMBL document CHEMBL1157539
